measured_on: H3/H4 (Xenopus, UniProt P84233 21-136; P62799 17-103)
result_type: Kd (nM)
The figure you give is taken to be in nM; do not add the unit.

Given Npm tail domain (residues 119–195) (domain or fragment) MEEDYSWAEEEDEGEEEEEEEEDPESPPKAVKRPAATKKAGQAKKKKLDKEDESSEEDSPTKKGKGAGRGRKPAAKK , respond with its Kd. 1110
